test system: KRAS patient-derived spheroids with HUVEC/MSC, viability; test: Anticancer human tumor 941728-121-R-J1-PDC patient-derived lung adenocarcinoma cell line growth inhibition [KRAS2]; details: second compound 10 µM; first compound 0.316 µM; active = viability on the fitted dose curve at most 10% of control; inactive = the rest
Choose the fitting class; nothing outside 1 (yes) (active), 0 (no) (inactive) is accepted.

Solved cases below.
CC1COCCN1c1cc(-c2ccnn2C)c2ccnc(-c3ccn[nH]3)c2n1 (stereo unspecified) + COc1cc2nc(C)nc(NC(C)c3cc(N)cc(C(F)(F)F)c3)c2cc1OC1CCOC1 | 0 (no)
O=C(c1cc(Cc2n[nH]c(=O)c3ccccc23)ccc1F)N1CCN(C(=O)C2CC2)CC1 + CNCc1ccccc1-c1csc(C(C)Nc2nc(C)nc3cc(OC)c(OC)cc23)c1 | 1 (yes)
CC(=O)OC12COC1CC(O)C1(C)C(=O)C(O)C3=C(C)C(OC(=O)C(O)C(NC(=O)OC(C)(C)C)c4ccccc4)CC(O)(C(OC(=O)c4ccccc4)C21)C3(C)C (stereo unspecified) + C=CC(=O)N1CCN(c2nc(=O)n(-c3c(C)ccnc3C(C)C)c3nc(-c4c(O)cccc4F)c(F)cc23)C(C)C1 | 0 (no)
CCN1CCN(Cc2ccc(Nc3ncc(F)c(-c4cc(F)c5nc(C)n(C(C)C)c5c4)n3)nc2)CC1 + CC1OCC2(CCN(c3cnc(Sc4ccnc(N)c4Cl)c(N)n3)CC2)C1N | 0 (no)

Give the logged outcome of this assay for the following compound: COC(=O)c1ccc2c(C(=Nc3ccc(N(C)C(=O)CN4CCN(C)CC4)cc3)c3ccccc3)c(O)[nH]c2c1 + CNCc1ccccc1-c1csc(C(C)Nc2nc(C)nc3cc(OC)c(OC)cc23)c1
1 (yes)

Give the logged outcome of this assay for the following compound: CC(C)NCC(C(=O)N1CCN(c2ncnc3c2C(C)CC3O)CC1)c1ccc(Cl)cc1 (stereo unspecified) + COc1cc2nc(C)nc(NC(C)c3cc(N)cc(C(F)(F)F)c3)c2cc1OC1CCOC1
1 (yes)

###

What pIC50 was measured for each of the following?
tested on: KRAS patient-derived spheroids with HUVEC/MSC, viability; experiment: Anticancer human tumor 941728-121-R-J1-PDC cell line growth inhibition [KRAS2]; conditions: curve of first compound; second compound 0.1 µM;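 note: spheroids exposed to agents for seven days before readout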
pIC50: −log10 of the molar value.

Use the examples below as a reference point.
Cn1ncnc1[C@H]1c2n[nH]c(=O)c3cc(F)cc(c23)N[C@@H]1c1ccc(F)cc1 + C=CC(=O)N1CCN(c2nc(OCC3CCCN3C)nc3c2CCN(c2cccc4cccc(C)c24)C3)CC1CC#N | > 9.50
COC(=O)c1ccc2c(C(=Nc3ccc(N(C)C(=O)CN4CCN(C)CC4)cc3)c3ccccc3)c(O)[nH]c2c1 + C=CC(=O)N1CCN(c2nc(OCC3CCCN3C)nc3c2CCN(c2cccc4cccc(C)c24)C3)CC1CC#N | > 7.50
CC(C)n1nc(-c2ccc3oc(N)nc3c2)c2c(N)ncnc21 + C=CC(=O)N1CCN(c2nc(=O)n(-c3c(C)ccnc3C(C)C)c3nc(-c4c(O)cccc4F)c(F)cc23)C(C)C1 | > 9.50

For each of the compounds below, state pIC50.
1. Cn1ncnc1[C@H]1c2n[nH]c(=O)c3cc(F)cc(c23)N[C@@H]1c1ccc(F)cc1 + CC1OCC2(CCN(c3cnc(Sc4ccnc(N)c4Cl)c(N)n3)CC2)C1N
2. CC(C)n1nc(-c2ccc3oc(N)nc3c2)c2c(N)ncnc21 + COc1cc2nc(C)nc(NC(C)c3cc(N)cc(C(F)(F)F)c3)c2cc1OC1CCOC1

[9.48, "> 9.50"]
